meta.source: patent US8987249B2

# TESTED_SYSTEM: recombinant human DPPI (Cathepsin C) (Homo sapiens (Human), UniProt P53634)
# Sequence (P53634 231-394): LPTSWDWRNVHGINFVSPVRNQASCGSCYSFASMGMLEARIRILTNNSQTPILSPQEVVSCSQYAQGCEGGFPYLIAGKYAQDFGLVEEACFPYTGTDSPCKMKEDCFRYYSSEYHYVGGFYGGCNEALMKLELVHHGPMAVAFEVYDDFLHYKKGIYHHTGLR
# Sequence (P53634 395-463): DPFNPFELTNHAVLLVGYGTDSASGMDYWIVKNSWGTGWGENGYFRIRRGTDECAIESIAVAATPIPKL
# Sequence (P53634 25-134): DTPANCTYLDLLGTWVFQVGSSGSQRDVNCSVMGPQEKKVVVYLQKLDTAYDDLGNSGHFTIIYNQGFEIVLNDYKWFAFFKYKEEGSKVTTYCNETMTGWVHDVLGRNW
# RUN_DESCRIPTION: Inhibition of human DPPI (Cathepsin C)
# SETTINGS: substrate Gly-Arg-AMC
The following compounds are shown together with reported IC50 values.
Give just the numeric value; nM need not be written.

What value of measured IC50 is listed for N#C[C@H](Cc1ccc(C2=CCN(C3CCOC3)CC2)cc1F)NC(=O)[C@H]1N[C@@H]2CC[C@H]1C2 (stereo partly shown) ? 12.9

// query IC50 value for entry `CS(=O)(=O)c1ccc(-c2ccc(C[C@@H](C#N)NC(=O)[C@H]3N[C@@H]4CC[C@H]3C4)c(F)c2)cc1C#N` 1.6

I would be grateful if you could share the reported IC50 for `CN1Cc2cc(-c3ccc(C[C@@H](C#N)NC(=O)[C@H]4N[C@H]5C[C@@H]4[C@@H]4C[C@@H]45)c(F)c3)ccc2C1=O` . 38.7

Continuing:
Need IC50 of N#CC(Cc1ccc2oc3ccccc3c2c1)NC(=O)[C@H]1N[C@@H]2CC[C@H]1C2 (stereo partly shown) , thanks. 296

Sample N#CC(Cc1cc2c(=O)[nH]c3ccccc3c2cc1F)NC(=O)[C@H]1N[C@@H]2CC[C@H]1C2 (stereo partly shown) — what was its IC50? 1.6

Dear colleague, I am looking for the recorded IC50 of the following compound: CS(=O)(=O)Nc1ccc(-c2ccc(CC(C#N)NC(=O)[C@H]3N[C@@H]4CC[C@H]3C4)c(F)c2)cc1 (stereo partly shown) 9.1

Name the recorded IC50 for `N#C[C@H](Cc1ccc(-c2csc(C(=O)N3CCn4nccc4C3)c2)cc1F)NC(=O)[C@H]1N[C@@H]2CC[C@H]1C2` . 0.9

====

# pIC50 per entry
# TESTED_SYSTEM: recombinant human DPPI (Cathepsin C) (Homo sapiens (Human), UniProt P53634)
# RUN_DESCRIPTION: Inhibition of human DPPI (Cathepsin C)
# SETTINGS: substrate Gly-Arg-AMC
To interpret pIC50, take it as minus log10 of a concentration measured in moles per litre.

Reference set (3 entries):
Please look up its pIC50: N#C[C@H](Cc1ccc(-c2ccc3c(c2)CC(=O)N3C2CCNCC2)cc1F)NC(=O)[C@H]1N[C@@H]2CC[C@H]1C2 [Example 334] 7.66

Give its pIC50 value. Item: N#C[C@H](Cc1ccc(-c2ccc3c(c2)CNC3=O)cc1F)NC(=O)[C@H]1N[C@H]2C[C@@H]1[C@@H]1C[C@@H]12 [Example 147] 8.21

May I ask what pIC50 has been recorded for CC(=O)Nc1ccc(-c2ccc(C[C@@H](C#N)NC(=O)[C@H]3N[C@H]4C[C@@H]3[C@@H]3C[C@@H]34)c(F)c2)cc1 [Example 131] ? 6.86

Attention now turns to another entry.
Recorded pIC50 for N#C[C@H](Cc1cc(-c2cccc(O)n2)ccc1F)NC(=O)[C@H]1N[C@@H]2CC[C@H]1C2 [Example 317] , please? 7.28

====

IC50 overview
# TESTED_SYSTEM: recombinant human Cathepsin K (Homo sapiens (Human))
# Sequence (P43235 115-329): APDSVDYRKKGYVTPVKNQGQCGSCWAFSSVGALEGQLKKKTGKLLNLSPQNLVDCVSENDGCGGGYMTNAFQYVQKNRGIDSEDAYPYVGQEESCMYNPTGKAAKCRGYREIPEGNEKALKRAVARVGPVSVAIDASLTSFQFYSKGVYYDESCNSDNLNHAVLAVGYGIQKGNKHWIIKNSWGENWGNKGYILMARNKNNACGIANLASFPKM
# RUN_DESCRIPTION: Inhibition of human Cathepsin K
# SETTINGS: substrate Z-Gly-Pro-Arg-AMC
# Protocol: Inhibition of Human Cathepsin K […] 5 μL test compound (final concentration 0.1 nM to 100 μM) in aqua bidest (containing 4% DMSO, final DMSO concentration 1%) were mixed with 10 uL of Cathepsin K in assay buffer (final concentration 2 ng/μL) and incubated for 10 min. […] The fluorescence in the wells was determined using a Molecular Devices SpectraMax M5 Fluorescence Reader (Ex 360 nm, Em 460 nm). […]
Unit µM implied. Number only.

See these solved cases before continuing.
Endpoint output: IC50 of CN1CCN(C(=O)c2cccc(-c3ccc(C[C@@H](C#N)NC(=O)[C@H]4N[C@@H]5CC[C@H]4C5)c(F)c3)c2)CC1 [Example 245] . Value? 1.2

IC50 for N#C[C@H](Cc1ccc(-c2ccc3c(c2)COC3=O)cc1F)NC(=O)[C@H]1N[C@@H]2CC[C@H]1C2 [Example 3] ? 2.1

Give its IC50 value. Item: CC(C)N1CCCN(c2ccc(C[C@@H](C#N)NC(=O)[C@H]3N[C@@H]4CC[C@H]3C4)c(F)c2)CC1 [Example 267] 4.7

For the compound N#C[C@H](Cc1ccc(-c2cccc(S(N)(=O)=O)c2)cc1F)NC(=O)[C@H]1N[C@@H]2CC[C@H]1C2 [Example 37] , what IC50 is on record? 5.1

Could you tell me which IC50 is on file for CN1C(=O)C(=O)c2ccc(-c3ccc(C[C@@H](C#N)NC(=O)[C@H]4N[C@@H]5CC[C@H]4C5)c(F)c3)cc21 [Example 10] ? 2.7

# input compound: CN1Cc2cc(-c3ccc(CC(C#N)NC(=O)[C@H]4N[C@@H]5CC[C@H]4C5)c(F)c3)ccc2C1=O (some centres unmarked) [Example 76] ; wanted: its IC50 5.3

Dear colleague, I am looking for the recorded IC50 of the following compound: N#C[C@H](Cc1ccc(-c2ccc(=O)n(CC(F)F)c2)cc1F)NC(=O)[C@H]1N[C@@H]2CC[C@H]1C2 [Example 343] 5.3

Endpoint output: IC50 of COCCn1cc(-c2ccc(C[C@@H](C#N)NC(=O)[C@H]3N[C@@H]4CC[C@H]3C4)c(F)c2)cn1 [Example 44] . Value? 4

Continuing:
What does the data say about its IC50? Entry: Cn1ncc2ccc(-c3ccc(C[C@@H](C#N)NC(=O)[C@H]4N[C@H]5C[C@@H]4[C@@H]4C[C@@H]45)c(F)c3)cc21 [Example 70] 12

Please give the measured IC50 for this compound: CS(=O)(=O)c1cc(-c2ccc(C[C@@H](C#N)NC(=O)[C@H]3N[C@@H]4CC[C@H]3C4)c(F)c2)ccc1C#N [Example 14] 2.7

Which IC50 is listed for COCCOCc1cn(-c2ccc(C[C@@H](C#N)NC(=O)[C@H]3N[C@@H]4CC[C@H]3C4)c(F)c2)nn1 [Example 112] ? 5.6

I'd like to know its IC50. The compound in question is CC(=O)n1nc(-c2ccc(CC(C#N)NC(=O)[C@H]3N[C@@H]4CC[C@H]3C4)c(F)c2)cc1C (some centres unmarked) [Example 7] 8

What does the data say about its IC50? Entry: N#Cc1cc(F)c2[nH]c(=O)c3cc(C[C@@H](C#N)NC(=O)[C@H]4N[C@@H]5CC[C@H]4C5)c(F)cc3c2c1 [Example 325] 2.3

Need IC50, item Cn1cc(-c2ccc(C[C@@H](C#N)NC(=O)[C@H]3N[C@@H]4CC[C@H]3C4)c(F)c2)c(C(F)(F)F)n1 [Example 118] 3.9
